assay: Mean residence time in monkey at 10 mg/kg, po; format: ADME, organism-based, Macaca mulatta; parameters: dose 10 mg/kg, route oral; settings: rhesus monkey, in vivo
Property Label: MRT (h)
// units = h; emit number, no label

Give MRT for "CCOc1cc(NC(=O)C2(NC(=O)c3ccc4c(C5CCCC5)c(-c5ncc(Cl)cn5)n(C)c4c3)CCC2)ccc1/C=C/C(=O)O"
6.1

----------
test: Cmax in monkey at 10 mg/kg, po; type: ADME, organism-based, Macaca mulatta; design: dose 10 mg/kg, route oral; settings: rhesus monkey, in vivo
Property Label: Cmax (µM)
// units = µM; emit number, no label

Give Cmax for "CCOc1cc(NC(=O)C2(NC(=O)c3ccc4c(C5CCCC5)c(-c5ncc(Cl)cn5)n(C)c4c3)CCC2)ccc1/C=C/C(=O)O"
9.6

----------
test: Mean residence time in rat at 10 mg/kg, po; format: ADME, organism-based; parameters: dose 10 mg/kg, route oral; details: in vivo
Below, each of the molecules is paired with its reported MRT value.
// units = h; emit number, no label

Record excerpt, results attached:
# Molecule, MRT, h
records = [
    ("CCOc1cc(NC(=O)C2(NC(=O)c3ccc4c(C5CCCC5)c(-c5ccc(F)cn5)n(C)c4c3)CCC2)ccc1/C=C/C(=O)O", 3),
    ("COCCOc1cc(NC(=O)C2(NC(=O)c3ccc4c(C5CCCC5)c(-c5ncc(Cl)cn5)n(C)c4c3)CCC2)ccc1/C=C/C(=O)O", 4.1),
]

Then there is this molecule:
Give MRT for "CCOc1cc(NC(=O)C2(NC(=O)c3ccc4c(C5CCCC5)c(-c5ncc(Cl)cn5)n(C)c4c3)CCC2)ccc1/C=C/C(=O)O"
3.6

----------
assay: Permeability across apical to basolateral side in human Caco2 cells; format: ADME, cell-based; settings: Caco-2, read-out: permeability
Property Label: Papp A→B (×10⁻⁶ cm/s)
// units = ×10⁻⁶ cm/s; emit number, no label

Record excerpt, results attached:
# Molecule, Endpoint Unit, Papp A→B
data = [
    ("CCCOc1cc(NC(=O)C2(NC(=O)c3ccc4c(C5CCCC5)c(-c5ccccn5)n(C)c4c3)CCC2)ccc1/C=C/C(=O)O", "×10⁻⁶ cm/s", 19),
    ("CCOc1cc(NC(=O)C2(NC(=O)c3ccc4c(C5CCCC5)c(-c5cccc(N)n5)n(C)c4c3)CCC2)ccc1/C=C/C(=O)O", "×10⁻⁶ cm/s", 9.4),
    ("COc1cc(NC(=O)C2(NC(=O)c3ccc4c(C5CCCC5)c(-c5ccccn5)n(C)c4c3)CCC2)cc(OC)c1/C=C/C(=O)O", "×10⁻⁶ cm/s", 17.6),
]

Then there is this compound:
Give Papp A→B for "CCOc1cc(NC(=O)C2(NC(=O)c3ccc4c(C5CCCC5)c(-c5ncc(Cl)cn5)n(C)c4c3)CCC2)ccc1/C=C/C(=O)O"
13

----------
Below, each of the molecules is paired with its reported pIC50 value.
assay: Inhibition of HCV full-length NS5B polymerase; design: species or system Hepacivirus hominis
Field pIC50 (float): negative decimal logarithm of the concentration in molar.

# Molecule, Numeric Result
measured = [
    ("CCOc1cc(NC(=O)C2(NC(=O)c3ccc4c(C5CCCC5)c(-c5ncc(Br)cn5)n(C)c4c3)CCC2)ccc1/C=C/C(=O)O", 6.34),
    ("CCOc1cc(NC(=O)C2(NC(=O)c3ccc4c(C5CCCC5)c(-c5ccccn5)n(C)c4c3)CCC2)ccc1/C=C/C(=O)O", 7.32),
    ("Cn1c(-c2ccccn2)c(C2CCCC2)c2ccc(C(=O)NC3(C(=O)Nc4ccc(/C=C/C(=O)O)c(OCC5CC5)c4)CCC3)cc21", 6.60),
    ("CC(C)COc1cc(NC(=O)C2(NC(=O)c3ccc4c(C5CCCC5)c(-c5ccccn5)n(C)c4c3)CCC2)ccc1/C=C/C(=O)O", 6.38),
]

Give pIC50 for "Cn1c(-c2ccccn2)c(C2CCCC2)c2ccc(C(=O)NC3(C(=O)Nc4ccc(/C=C/C(=O)O)cc4)CCC3)cc21"
7.22

----------
assay: Plasma concentration in rat at 4 mg/kg, po cassette dosing after 2 hrs; type: ADME, organism-based; parameters: dose 4 mg/kg, route oral
Below, each of the compounds is paired with its reported concentration at 2 h value.
// units = nM; emit number, no label

Record excerpt, results attached:
# Molecule, Property Label, Endpoint Unit, Numeric Result
data = [
    ("CCOc1cc(NC(=O)C2(NC(=O)c3ccc4c(C5CCCC5)c(-c5ccc(F)cn5)n(C)c4c3)CCC2)ccc1/C=C/C(=O)O", "concentration at 2 h", "nM", 800),
    ("COc1cc(NC(=O)C2(NC(=O)c3ccc4c(C5CCCC5)c(-c5ccccn5)n(C)c4c3)CCC2)ccc1/C=C/C(=O)O", "concentration at 2 h", "nM", 500),
]

Give concentration at 2 h for "COCCOc1cc(NC(=O)C2(NC(=O)c3ccc4c(C5CCCC5)c(-c5ncc(Cl)cn5)n(C)c4c3)CCC2)ccc1/C=C/C(=O)O"
1100

----------
test: Half life in human liver microsomes; assay type: ADME
Property Label: half-life (h)
// units = h; emit number, no label

# Molecule, Endpoint Unit, half-life
measured = [
    ("CCOc1cc(NC(=O)C2(NC(=O)c3ccc4c(C5CCCC5)c(-c5nccs5)n(C)c4c3)CCC2)ccc1/C=C/C(=O)O", "h", 0.6),
    ("COCCOc1cc(NC(=O)C(C)(C)NC(=O)c2ccc3c(C4CCCC4)c(-c4ncc(Cl)cn4)n(C)c3c2)ccc1/C=C/C(=O)O", "h", 2.15),
    ("CCOc1cc(NC(=O)C2(NC(=O)c3ccc4c(C5CCCC5)c(-c5ccc(Cl)cn5)n(C)c4c3)CCC2)ccc1/C=C/C(=O)O", "h", 1.35),
    ("CCOc1cc(NC(=O)C2(NC(=O)c3ccc4c(C5CCCC5)c(-c5ccc(F)cn5)n(C)c4c3)CCC2)ccc1/C=C/C(=O)O", "h", 1.2),
]

Give half-life for "CCOc1cc(NC(=O)C2(NC(=O)c3ccc4c(C5CCCC5)c(-c5ccccn5)n(C)c4c3)CCC2)ccc1/C=C/C(=O)O"
1.07

Give half-life for "Cn1c(-c2ccccn2)c(C2CCCC2)c2ccc(C(=O)NC3(C(=O)Nc4ccc(/C=C/C(=O)O)c(OC5CCC5)c4)CCC3)cc21"
0.833

Give half-life for "CCOc1cc(NC(=O)C2(NC(=O)c3ccc4c(C5CCCC5)c(-c5cccc(N)n5)n(C)c4c3)CCC2)ccc1/C=C/C(=O)O"
1.3

Give half-life for "Cn1c(-c2ccccn2)c(C2CCCC2)c2ccc(C(=O)NC3(C(=O)Nc4ccc(/C=C/C(=O)O)c(OCC5CC5)c4)CCC3)cc21"
3.85

----------
test: Inhibition of HCV full-length NS5B polymerase; parameters: species or system Hepacivirus hominis
pIC50: −log10 of the molar value.
Use 7 as the dividing line for pIC50, with the line itself on the true side and lower values as false.

# Molecule, Qualitative Label
data = [
    ("CCOc1cc(NC(=O)C(C)(C)NC(=O)c2ccc3c(C4CCCC4)c(-c4ncc(Cl)cn4)n(C)c3c2)ccc1/C=C/C(=O)O", "true"),
    ("CCOc1cc(NC(=O)C2(NC(=O)c3ccc4c(C5CCCC5)c(-c5ccc(Cl)cn5)n(C)c4c3)CCC2)ccc1/C=C/C(=O)O", "false"),
    ("Cn1c(-c2ccccn2)c(C2CCCC2)c2ccc(C(=O)NC3(C(=O)Nc4ccc(/C=C/C(=O)O)c(OC5CCC5)c4)CCC3)cc21", "false"),
]

Record "CCOc1cc(NC(=O)C2(NC(=O)c3ccc4c(C5CCCC5)c(-c5cnn(C)c5)n(C)c4c3)CCC2)ccc1/C=C/C(=O)O" ; criterion: pIC50 no lower than 7. Met?
false

----------
experiment: Inhibition of HCV full-length NS5B polymerase; parameters: species or system Hepacivirus hominis
Property Label: IC50 (nM)
// units = nM; emit number, no label

Record excerpt, results attached:
# Molecule, Property Label, Numeric Result
measured = [
    ("CCOc1cc(NC(=O)C2(NC(=O)c3ccc4c(C5CCCC5)c(-c5nccs5)n(C)c4c3)CCC2)ccc1/C=C/C(=O)O", "IC50", 150),
    ("Cc1cc(NC(=O)C2(NC(=O)c3ccc4c(C5CCCC5)c(-c5ccccn5)n(C)c4c3)CCC2)ccc1/C=C/C(=O)O", "IC50", 69),
    ("CCCOc1cc(NC(=O)C2(NC(=O)c3ccc4c(C5CCCC5)c(-c5ccccn5)n(C)c4c3)CCC2)ccc1/C=C/C(=O)O", "IC50", 130),
    ("CCOc1cc(NC(=O)C2(NC(=O)c3ccc4c(C5CCCC5)c(-c5ccc(F)cn5)n(C)c4c3)CCC2)ccc1/C=C/C(=O)O", "IC50", 110),
]

Then there is this compound:
Give IC50 for "CCOc1cc(NC(=O)C2(NC(=O)c3ccc4c(C5CCCC5)c(-c5ncc(Cl)cn5)n(C)c4c3)CCC2)ccc1/C=C/C(=O)O"
110

Every entry's value here was drawn from ChEMBL document CHEMBL3351932.
